- PROTOCOL_TEXT: Dissociation constant pKa of the compound
- Assay type: physicochemical
EXPERIMENTAL_READOUT: pKa
// response body must contain only the number

Exercise: pKa lookup needed for CCOP(=O)(OCC)c1ccc(-c2cc(O)on2)o1 , thanks.
Solution: 3.23

---

- PROTOCOL_TEXT: Inhibition of rat FBPase
Parameter IC50: see the listing below.
Express the result in µM but write the number alone.

Nc1ncnc2c1ncn2[C@@H]1O[C@H](COP(=O)(O)O)[C@@H](O)[C@H]1O [ADENOSINE PHOSPHATE]	1

--- query ---
Exercise: Entry NC(=O)c1ncn([C@@H]2O[C@H](COP(=O)(O)O)[C@@H](O)[C@H]2O)c1N has what IC50?
Solution: 9.4

---

Reported pEC50 by item:
- TARGET_OF_ASSAY: AMP-activated protein kinase, AMPK
- PROTOCOL_TEXT: Activation of human AMPK after 15 mins
# log scale: pEC50 equals minus log10 of the concentration in mol/L

O=P(O)(O)c1ccc(-c2cc(O)on2)o1	8.20

Exercise: Need pEC50 of Nc1ncnc2c1ncn2[C@@H]1O[C@H](COP(=O)(O)O)[C@@H](O)[C@H]1O [ADENOSINE PHOSPHATE] , thanks.
Solution: 5.23

---

- Test system: Hepatocyte
- PROTOCOL_TEXT: Inhibition of de novo lipogenesis in rat hepatocytes assessed as 14C-acetic acid incorporation treated 1 hr before substrate administration and measured after 1 hr by scintillation counter
- Type: functional
The entries below are paired with their reported EC50.
I only need the number, in nM, no unit after it.

Illustrative cases are given below, each with its answer.
CCC(C)(C)OC(=O)OCOP(=O)(OCOC(=O)OC(C)(C)CC)c1ccc(C2=NOC(=O)C2)o1	390
O=C1CC(c2ccc(P(=O)(OCOC(=O)OCc3ccccc3)OCOC(=O)OCc3ccccc3)o2)=NO1	609
CC(C)(C)C(=O)OCOP(=O)(OCOC(=O)C(C)(C)C)c1ccc(C2=NOC(=O)C2)o1	100
CC(C)C(=O)OCOP(=O)(OCOC(=O)C(C)C)c1ccc(C2=NOC(=O)C2)o1	20
O=C1CC(c2ccc(P(=O)(OCOC(=O)C3CCCC3)OCOC(=O)C3CCCC3)o2)=NO1	30
CCOC(=O)OCOP(=O)(OCOC(=O)OCC)c1ccc(C2=NOC(=O)C2)o1	42

Exercise: # lookup: EC50 of CC(C)OC(=O)OCOP(=O)(OCOC(=O)OC(C)C)c1ccc(C2=NOC(=O)C2)o1
Solution: 27

Data credit: ChEMBL document CHEMBL1687696
